- SYSTEM: MINA53 (Homo sapiens, UniProt Q8IUF8)
- Construct: His6; made in house; host or cells: Escherichia coli BL21(DE3), pET-28b
- Sequence (Q8IUF8 26-464): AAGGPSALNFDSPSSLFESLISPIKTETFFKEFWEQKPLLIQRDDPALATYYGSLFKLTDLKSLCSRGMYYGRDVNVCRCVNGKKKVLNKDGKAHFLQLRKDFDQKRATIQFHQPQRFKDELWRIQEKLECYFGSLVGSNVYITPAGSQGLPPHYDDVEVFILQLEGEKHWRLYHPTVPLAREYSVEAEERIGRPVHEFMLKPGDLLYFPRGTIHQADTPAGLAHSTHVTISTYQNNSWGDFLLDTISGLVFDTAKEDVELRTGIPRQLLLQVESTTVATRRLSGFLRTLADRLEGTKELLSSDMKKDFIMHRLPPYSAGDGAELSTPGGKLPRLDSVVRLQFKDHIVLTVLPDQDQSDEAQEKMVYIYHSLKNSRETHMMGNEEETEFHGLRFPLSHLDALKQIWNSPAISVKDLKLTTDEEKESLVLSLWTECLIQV
- EXPERIMENTAL DETAILS: MINA53 inhibition assay by Rpl27a peptides (MALDI-TOF MS)
- Assay type: biochemical
- STATED CONDITIONS: 400 nM MINA53, 10 nM to 250 μM inhibitor Rpl peptide, 100 μM L-ascorbic acid, 10 μM ferrous ammonium sulfate, 10 μM 2OG, 50 mM HEPES pH 7.5, Rpl27a-His39 substrate, duplicate assays
pIC50: −log10 of the molar value. Ends that are not written are not given here.
ASSAY ENDPOINT: pIC50

I: GRGNAGGLQHHRINFDKYHP-NH2 [Rpl27a-Gln39]
II: GRGNAGGLNHHRINFDKYHP-NH2 [Rpl27a-Asn39]
Request: // task: argmin of pIC50 over [ I , II ] Give the label under which the chosen entry appears.
Response: II
(II: 5.99, I: 6.41)

* * *

- SYSTEM: NO66 (Homo sapiens)
- Construct: His6; made in house; host or cells: Escherichia coli BL21(DE3), pET-28b
- Sequence (Q9H6W3 167-641): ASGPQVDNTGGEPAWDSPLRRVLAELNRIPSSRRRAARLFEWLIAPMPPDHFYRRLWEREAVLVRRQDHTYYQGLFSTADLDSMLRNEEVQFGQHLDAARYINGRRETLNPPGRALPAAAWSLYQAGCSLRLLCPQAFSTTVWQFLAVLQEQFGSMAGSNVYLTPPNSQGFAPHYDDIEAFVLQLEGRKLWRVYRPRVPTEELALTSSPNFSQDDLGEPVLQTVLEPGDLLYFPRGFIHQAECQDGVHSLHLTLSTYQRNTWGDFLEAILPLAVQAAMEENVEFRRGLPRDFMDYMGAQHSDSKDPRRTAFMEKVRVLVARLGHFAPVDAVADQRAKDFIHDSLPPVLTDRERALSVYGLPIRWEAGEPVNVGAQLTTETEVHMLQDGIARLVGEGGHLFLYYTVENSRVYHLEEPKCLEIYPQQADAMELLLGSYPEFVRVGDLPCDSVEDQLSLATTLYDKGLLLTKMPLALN
- EXPERIMENTAL DETAILS: NO66 inhibition assay by Rpl8 peptides (MALDI-TOF MS)
- Format: biochemical
- STATED CONDITIONS: 400 nM NO66, 10 nM to 250 μM inhibitor Rpl peptide, 100 μM L-ascorbic acid, 10 μM ferrous ammonium sulfate, 10 μM 2OG, 50 mM MES pH 7.0, Rpl8-His216 substrate, duplicate assays
Ends that are not written are not given here.
ASSAY ENDPOINT: IC50 (µM)
The answer is to be given in µM; state only the numeric part.

Input NPVEHPFGGGNNQHIGKPST-NH2 [Rpl8-Asn216] . Output IC50: 8.86
